The values you see were collected from ChEMBL document CHEMBL3988442.

System: Wolbachia pipientis
Test: Anti-Wolbachia Cell-Based Screen
Assay type: functional
Parameters: scale not given: in the data most compounds retested in dose-response had high values
Conditions: 5 µM
Hit rate of the full screen: of about 48,000 compounds, about 13,000 (27%) showed an effect of 50% or more. This is one part of the list.
Hi there, I'd appreciate the recorded Percent Effect for every entry that follows.
The figure you give is taken to be in %; do not add the unit.

query: Entry under review: `CCOc1ncccc1NC(=O)NC1CCN(C(=O)C2CC2)CC1` . Reported Percent Effect?
result: 105.1

query: Fill in the blank: the reported Percent Effect of COc1cccc(N2CCN(C(=O)C(O)CC(C)C)CC2=O)c1 (configuration not stated) is ____.
result: 12.91

query: What does the data say about its Percent Effect? Entry: Cc1ccc(C(=O)NC2CCCN(c3ncccn3)C2)cn1 (configuration not stated)
result: 6.467

query: Any idea what Percent Effect was measured for `Cc1cnn(CCNCc2csc(C)n2)c1` ?
result: 11.83

query: For the molecule CNC(=O)c1cc(C2CCCN2)n[nH]1.Cl (configuration not stated) , what Percent Effect is on record?
result: 155.4

query: Given the molecule `O=C(NC1CCCC1)c1n[nH]c2c1CNCC2` , what is its reported Percent Effect?
result: -11.08

query: What value of measured Percent Effect is listed for CCCc1cc(C(=O)NC2CCCCNC2=O)[nH]n1 (configuration not stated) ?
result: -7.069

query: Would you kindly share the measured Percent Effect for CNC(=O)c1cc(C2CCCNC2)n[nH]1.Cl (configuration not stated) ?
result: 96.41

query: Endpoint output: Percent Effect of `CCN1CCC(CNC(=O)Nc2cccnc2OC)CC1` . Value?
result: 15.3

query: Which measured Percent Effect value corresponds to Cl.O=C(NC1CCCC1)c1cc(C2CCCNC2)n[nH]1 (configuration not stated) ?
result: 150.1

query: Consider the molecule `COc1ccccc1OCc1cc(C(=O)NC[C@@H]2CCCN2)n[nH]1` and give its measured Percent Effect.
result: -26.39

query: What Percent Effect value was documented for this molecule, CNC(=O)c1[nH]nc2c1CN(c1cc(C3CCCNC3)nc(C)n1)CC2 (configuration not stated) ?
result: -2.336

* * *

I'd appreciate it if you could supply Percent Effect values for the items below.
Tested on: Wolbachia pipientis
Assay: Anti-Wolbachia Cell-Based Screen
Format: functional
Parameters: scale not given: in the data most compounds retested in dose-response had high values
Details: 5 µM
Hit rate of the full screen: of about 48,000 compounds, about 13,000 (27%) showed an effect of 50% or more. Some of the results follow.
Respond with the bare value in %.

query: For the compound Cn1ncc2c(NCC3CCS(=O)(=O)C3)nc(-c3ccncc3)nc21 (stereo not given) , what Percent Effect is on record?
result: 10.96

query: Value lookup for Percent Effect; key = `O=C(NCCCN1CCOCC1)Nc1cnc2cc(Cl)ccc2c1O`
result: -16.9

query: Value lookup for Percent Effect; key = `Cc1[nH]c2ccc(CNC3CCN(Cc4ccccn4)CC3)cc2c1C`
result: -2.213

query: # query: Percent Effect of entry `Fc1ccc(CNC2CCN(CCc3ccncc3)CC2)cc1F`
result: -3.888

query: Fill blank: measured Percent Effect of the compound `Cl.O[C@@H]1CN(Cc2ccc(F)cc2)CC[C@H]1NCc1ccccn1` is ____.
result: 97.86

query: Request the reported Percent Effect associated with `O=C(NCC1CC1)Nc1cnc2cc(Cl)ccc2c1O`
result: -14.95

query: Recorded Percent Effect of `CNC(=O)Nc1cnc2cc(Cl)ccc2c1O` , please.
result: 96.42

query: Please give the measured Percent Effect for this compound: `CC(C)OC(=O)c1ccc(Cl)c(NC(=O)NCCN2CCOCC2)c1`
result: -2.134

query: Given the entry `O=C(NC[C@H]1OC[C@@H](NCc2ccccn2)[C@@H]1O)c1ccc(F)cc1` , report its measured Percent Effect.
result: 4.298

query: Name the recorded Percent Effect for `Cn1nnnc1SCCNC(=O)C1CCN(C(=O)C2CCC2)CC1` .
result: 1.92

query: What does the data say about its Percent Effect? Entry: `Fc1ccc(OCc2nnc([C@H]3CCN(Cc4ccccn4)C3)o2)cc1`
result: 11.6

query: Sample `O=C(CCc1ccsc1)Nc1cnccc1O` — what was its Percent Effect?
result: 9.927

query: Sample `N[C@H]1CN(C(=O)c2cnc3cc(Cl)ccc3c2O)C[C@@H]1C1CC1` — what was its Percent Effect?
result: 6.977

query: What value of measured Percent Effect is listed for `CC(C)OCCCNC(=O)Nc1cccc2ncccc12` ?
result: -8.776

query: Name the recorded Percent Effect for `O=C(NCCO)Nc1cccc(Cl)c1SC(F)F` .
result: 0.2889

query: Percent Effect for `O=C(NCCN1CCOCC1)Nc1cnc2cc(Cl)ccc2c1O` ?
result: 96.85

query: Need Percent Effect of `CCN(CC)S(=O)(=O)N(C)Cc1ccncc1` , thanks.
result: -6.423

query: Tell me the measured Percent Effect of CC(C)N1CCC(Nc2ccn(Cc3ccccn3)n2)C1=O (stereo not given) , please.
result: 7.705

query: Query (compound): `O=C(NCCCO)Nc1cccc(Cl)c1F` ; field requested: Percent Effect
result: -20.85

query: State the recorded Percent Effect for this entry: `CN(Cc1cccc(F)c1)C1CCN(CCc2ccccn2)CC1`
result: 5.619

query: # Percent Effect lookup, item `CCc1nsc(N2CCN(C(=O)c3ccnc(N(C)C)c3)CC2)n1`
result: -3.339

query: Request the reported Percent Effect associated with CC(=O)Nc1ccc(C(=O)N(C)C(C)Cc2cc(C)ccn2)cn1 (stereo not given)
result: -9.308

query: Which value of Percent Effect has been reported for `O=C(NCCCO)Nc1cnc2cc(Cl)ccc2c1O` in the records?
result: 96.93

query: Fill blank: measured Percent Effect of the compound `c1cn(Cc2nnc(C3CCN(c4nccs4)CC3)n2C2CC2)cn1` is ____.
result: 0.8881

query: Item under review: `COCCS(=O)(=O)N(Cc1cscn1)c1ccccc1` . Reported Percent Effect?
result: -16.91
